These data points were gathered from paper PMC5706701.

- TEST TARGET: Human IP6K1 (Homo sapiens)
- Construct: GST (N, cleaved yes); made in house; host or cells: C43 E. coli, pGEX-6P-2
- ASSAY: IP6K1 high-throughput screen of the Sigma LOPAC (ADP-Glo Max, single point);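 further: final compound concentration 10µM in 5% DMSO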
- Format: biochemical
- PROTOCOL CONDITIONS: LOPAC single-point screen, ADP-Glo Max luminescence raw signal per well
Counter-ions that a name gives are not always drawn.
Would you kindly list Raw Signal for each of these compounds?
Numbers only.

The following compounds have reported results that may help.
{"COMPOUND": "Cn1cnc2c1c(=O)[nH]c(=O)n2C [Theobromine]", "Raw Signal": 52921}
{"COMPOUND": "CC(=O)N[C@@H](Cc1c[nH]c2ccccc12)C(=O)OCc1cc(C(F)(F)F)cc(C(F)(F)F)c1 [L-732,138]", "Raw Signal": 53722}
{"COMPOUND": "CCN(CC)CCNC(=O)c1ccc(N)cc1 [Procainamide hydrochloride]", "Raw Signal": 51793}

--- query ---
Request: Give the value of Raw Signal reported for the following: Cc1c(CC(C)(C)C(=O)O)n(Cc2ccc(Cl)cc2)c2ccc(F)cc12 [L-655,240]
Result: 51424

---

- TEST TARGET: Human IP6K1 (Homo sapiens, UniProt Q92551)
- Construct: GST (N, cleaved yes); made in house; host or cells: C43 E. coli, pGEX-6P-2
- Sequence (Q92551 whole entry): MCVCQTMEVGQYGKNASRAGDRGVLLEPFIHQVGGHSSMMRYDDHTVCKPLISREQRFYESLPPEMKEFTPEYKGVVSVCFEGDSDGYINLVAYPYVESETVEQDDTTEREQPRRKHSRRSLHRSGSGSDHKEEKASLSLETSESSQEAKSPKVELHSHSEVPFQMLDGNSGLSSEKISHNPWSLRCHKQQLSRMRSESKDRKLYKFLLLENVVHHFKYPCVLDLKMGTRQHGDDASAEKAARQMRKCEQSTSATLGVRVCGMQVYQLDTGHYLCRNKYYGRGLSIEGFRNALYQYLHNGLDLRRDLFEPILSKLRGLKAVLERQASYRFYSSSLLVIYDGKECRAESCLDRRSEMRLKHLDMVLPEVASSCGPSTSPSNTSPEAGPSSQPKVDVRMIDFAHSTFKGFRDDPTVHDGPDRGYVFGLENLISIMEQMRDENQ
- ASSAY: IP6K1 high-throughput screen of the Sigma LOPAC (ADP-Glo Max, single point);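 further: final compound concentration 10µM in 5% DMSO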
- Assay type: biochemical
- PROTOCOL CONDITIONS: LOPAC single-point screen; Z-score from raw signal with plate average and StDev
Structures can show the parent of a compound that is named as a salt.
So basically: is Z-score under -0.2? Then condition met. Not under? Then condition not met.

Worked examples follow.
{"COMPOUND": "CN[C@@H](C)[C@H](O)c1ccccc1.CN[C@@H](C)[C@H](O)c1ccccc1.O=S(=O)(O)O [(-)-Ephedrine hemisulfate]", "ASSIGNED CATEGORY": "condition not met"}
{"COMPOUND": "O=C(O)C1=CCNCC1 [Isoguvacine hydrochloride]", "ASSIGNED CATEGORY": "condition met"}
{"COMPOUND": "CC(C)(C)NCC(O)c1ccc(O)c(CO)c1 (stereo not drawn) [Salbutamol]", "ASSIGNED CATEGORY": "condition met"}
{"COMPOUND": "CC(C)NCC(O)c1ccc(NS(C)(=O)=O)cc1.Cl (racemic) [(±)-Sotalol hydrochloride]", "ASSIGNED CATEGORY": "condition not met"}
{"COMPOUND": "COc1ccccc1OCC(O)CN1CCN(CC(=O)Nc2c(C)cccc2C)CC1 (stereo not drawn) [Ranolazine dihydrochloride]", "ASSIGNED CATEGORY": "condition met"}
{"COMPOUND": "CC[C@]1(O)C[C@@H]2CN(CCc3c([nH]c4ccccc34)[C@@](C(=O)OC)(c3cc4c(cc3OC)N(C)[C@H]3[C@@](O)(C(=O)OC)[C@H](OC(C)=O)[C@]5(CC)C=CCN6CC[C@]43[C@@H]65)C2)C1.O=S(=O)(O)O [Vinblastine sulfate salt]", "ASSIGNED CATEGORY": "condition not met"}
{"COMPOUND": "NC(=O)COc1c(F)cc(SCCNS(=O)(=O)c2ccccc2)cc1F", "ASSIGNED CATEGORY": "condition met"}
{"COMPOUND": "NC(=O)c1ncn([C@@H]2O[C@H](CO)[C@@H](O)[C@H]2O)n1 [Ribavirin]", "ASSIGNED CATEGORY": "condition met"}

Request: Confirm or reject: Z-score of CC1COc2c(N3CCN(C)CC3)c(F)cc3c(=O)c(C(=O)O)cn1c23 (stereo not drawn) [Ofloxacin] lies strictly below -0.2
Result: condition met

---

- TEST TARGET: Human IP6K1 (Homo sapiens, UniProt Q92551)
- Construct: GST (N, cleaved yes); made in house; host or cells: C43 E. coli, pGEX-6P-2
- ASSAY: IP6K1 high-throughput screen of the Sigma LOPAC (ADP-Glo Max, single point);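 further: final compound concentration 10µM in 5% DMSO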
- Format: biochemical
- PROTOCOL CONDITIONS: LOPAC single-point screen, Z-score against plate average and StDev
Structures can show the parent of a compound that is named as a salt.
Would you kindly list Z-score for each of these molecules?
Give bare numbers.

{"MOLECULE": "CCC(=O)c1ccc2c(c1)N(CCCN(C)C)c1ccccc1S2 [Propionylpromazine hydrochloride]", "TEST TARGET": "Human IP6K1 (Homo sapiens, UniProt Q92551)", "Z-score": 0.004895}
{"MOLECULE": "Cc1cccc(/C=C/c2ccccc2)n1 [SIB 1893]", "TEST TARGET": "Human IP6K1 (Homo sapiens, UniProt Q92551)", "Z-score": -0.06893}
{"MOLECULE": "COc1cc(C(O)CN)ccc1O.Cl (racemic) [(±)-Normetanephrine hydrochloride]", "TEST TARGET": "Human IP6K1 (Homo sapiens, UniProt Q92551)", "Z-score": 0.02461}
{"MOLECULE": "CCOC(=O)C1=C(C)NC(=S)NC1c1cccc(O)c1 (centres unmarked) [Monastrol]", "TEST TARGET": "Human IP6K1 (Homo sapiens, UniProt Q92551)", "Z-score": -0.0221}
{"MOLECULE": "C/C=C(/C)C(=O)O[C@H]1C(C)=C2[C@H]([C@@H]1OC(=O)CCCCCCC)[C@@](C)(OC(C)=O)C[C@H](OC(=O)CCC)[C@@]1(O)[C@H]2OC(=O)[C@@]1(C)O [Thapsigargin]", "TEST TARGET": "Human IP6K1 (Homo sapiens, UniProt Q92551)", "Z-score": 0.1069}
{"MOLECULE": "O=C(Cc1ccc(Cl)c(Cl)c1)OCCN1CCCC1 [AC 915 oxalate]", "TEST TARGET": "Human IP6K1 (Homo sapiens, UniProt Q92551)", "Z-score": -0.04423}
{"MOLECULE": "CC(=O)[C@H]1CC[C@H]2[C@@H]3CC[C@H]4C[C@H](O)CC[C@]4(C)[C@H]3CC[C@]12C [5alpha-Pregnan-3alpha-ol-20-one]", "TEST TARGET": "Human IP6K1 (Homo sapiens, UniProt Q92551)", "Z-score": -0.01609}
{"MOLECULE": "COc1cc2c(c(OC)c1OC)-c1ccc(OC)c(=O)cc1[C@@H](NC(C)=O)CC2 [Colchicine]", "TEST TARGET": "Human IP6K1 (Homo sapiens, UniProt Q92551)", "Z-score": 0.07572}

Report Z-score for every entry below.
1. Br.Oc1ccc(C2CNCc3sccc32)cc1O (centres unmarked) [SKF 89626]
2. CCCCNc1ccc(C(=O)OCCN(C)C)cc1 [Tetracaine hydrochloride]
3. O=P(O)(O)C(Cl)(Cl)P(=O)(O)O [Clodronic acid]
4. CC(=O)OCC1=C(C(=O)O)N2C(=O)[C@@H](NC(=O)Cc3cccs3)[C@H]2SC1 [Cephalothin sodium]

Result:
[0.04628, 0.09679, 0.2439, 0.1402]

Report Z-score for every entry below.
1. COc1cccc(OC)c1OCCNCC1CSc2ccccc2O1 (centres unmarked) [Benoxathian hydrochloride]
2. Cc1cc(C)c(NC(=O)C[C@H](CC(=O)O)c2cccc3ccccc23)c(C(=O)N2CCC3(CCCC3)CC2)c1 [CR 2945]

Result:
-0.04669
0.1058

Report Z-score for every entry below.
1. C=CC[C@H](N)C(=O)O [L-allylglycine]
2. O=C1NCC2(CCN(CCc3ccccc3)CC2)O1 [Fenspiride hydrochloride]
3. CCOC(=O)c1ncn2c1[C@@H]1CCCN1C(=O)c1cc(OC)ccc1-2 [L-655,708]
4. CCN(CC)CCCCCCCCOC(=O)c1cc(OC)c(OC)c(OC)c1.Cl [TMB-8 hydrochloride]
5. CCN(CC)C(=O)c1ccc(O)c(OC)c1 [Vanillic acid diethylamide]

Result:
1. 0.1886
2. -0.08307
3. -0.05049
4. 0.2867
5. 0.1996

---

Would you kindly list Raw Signal for each of these molecules?
- TEST TARGET: Human IP6K1 (Homo sapiens, UniProt Q92551)
- Construct: GST (N, cleaved yes); made in house; host or cells: C43 E. coli, pGEX-6P-2
- ASSAY: IP6K1 high-throughput screen of the Sigma LOPAC (ADP-Glo Max, single point);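 further: final compound concentration 10µM in 5% DMSO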
- Format: biochemical
- PROTOCOL CONDITIONS: LOPAC single-point screen, ADP-Glo Max luminescence raw signal per well
Where a name gives a salt, the structure may show the parent alone.
Numbers only.

The following molecules have reported results that may help.
{"MOLECULE": "C#CCn1c(=O)c2c(ncn2C)n(C)c1=O", "Raw Signal": 50513}
{"MOLECULE": "Cl.NC1(C(=O)O)CCCCC1", "Raw Signal": 53186}
{"MOLECULE": "C[C@](N)(Cc1ccc(O)c(O)c1)C(=O)O", "Raw Signal": 24071}

Report Raw Signal for every entry below.
1. COc1cc(CC(C)N)c(OC)cc1I.Cl (racemic) [(±)-DOI hydrochloride]
2. C=CC(N)CCC(=O)O (racemic) [(±)-gamma-Vinyl GABA]
3. Br.CCCN(CCC)[C@@H]1CCc2ccc(O)cc2C1 [R-(+)-7-Hydroxy-DPAT hydrobromide]
4. N[C@H](C(=O)O)c1cc(O)cc(O)c1 [(S)-3,5-Dihydroxyphenylglycine]

Result:
52125
68019
62909
63204

Report Raw Signal for every entry below.
1. CCC(C)N(C)C(=O)c1cc2ccccc2c(-c2ccccc2Cl)n1 (stereo not drawn)
2. O=C(O)c1cccnc1Nc1cccc(C(F)(F)F)c1

Result:
1. 54307
2. 47033

Report Raw Signal for every entry below.
1. CCN(CC)CCNC(=O)c1ccc(NC(C)=O)cc1.Cl [N-Acetylprocainamide hydrochloride]
2. O=c1c(O)c(-c2cc(O)c(O)c(O)c2)oc2cc(O)cc(O)c12
3. Cl.NCCS [Cysteamine hydrochloride]
4. NC(CO)C(=O)NNCc1ccc(O)c(O)c1O (stereo not drawn) [Benserazide hydrochloride]
5. CO[C@@]1(NC(=O)CSCC#N)C(=O)N2C(C(=O)O)=C(CSc3nnnn3C)CS[C@@H]21 [Cefmetazole sodium]
6. COc1ccc(CCN(C)CCCC(C#N)(c2ccc(OC)c(OC)c2)C(C)C)cc1OC.Cl (racemic) [(±)-Verapamil hydrochloride]
7. NC(CO)(CO)CO.O=C(c1ccccc1)c1ccc2n1CCC2C(=O)O (stereo not drawn) [Ketorolac tris salt]
8. CCCCCCCCCCCCCCCC(=O)NCCO [Palmitoylethanolamide]

Result:
[70393, 8540, 49886, 50551, 53279, 63315, 48098, 51451]
